biological target: HLA-A*6802 (human); assay: inhibition of 125I probe peptide binding to purified HLA

# Binder, IC50 (nM)
rows = [
    ("FLLFFWLDRSV [Peptide 63.0138 FLLFFWLDRSV (PAP.20)]", 364),
]

Hello, the source for this data is patent US20040037843A1, in case you need it.
